Values from patent US20200002414A1

# system_under_test: T1, human Ror2 (human, UniProt Q01974 34-403, limits assumed)
# T1 construct: also called hROR2; receptor tyrosine kinase-like orphan receptor 2
# protocol_description: ELISA, human Ror2, pH 6.0; also: unit not given here
experimental_endpoint: Affinity ELISA pH 6.0
Numbers only.

Solved entries:
>>> value_reported("HC-F029E (antibody, V domains shown) VH: EVQLQQSGPELVKPGASVKISCKTSGYTETEYTMHWMKQSHRKSLEWIGGINTNNGGTGYNQKFKGKATLTVDKSSSTAYMELRSLTSEDSAVYFCARGSLYSYGNSYFDYWGQGTLVTVSS VL: QIVLTQSPAIMSASPGEKVTITCSATSSVSYMHWFQQKPGTSPKLWIYGTSNLASGVPARFSGSGSGTSYSLTISRMEAEDAATYYCQQRSSYPFTFGQGTKVEIK")
1.34
>>> value_reported("HC-M034D (antibody, V domains shown) VH: EVQLQQSGPELVKPGASVKISCKTSGYTFTEYTDHWMKQSHRKSLEWIGGINTNNGGTGYNQKFKGKATLTVDKSSSTAYMELRSLTSEDSAVYFCARGSLYSYGNSYFDYWGQGTLVTVSS VL: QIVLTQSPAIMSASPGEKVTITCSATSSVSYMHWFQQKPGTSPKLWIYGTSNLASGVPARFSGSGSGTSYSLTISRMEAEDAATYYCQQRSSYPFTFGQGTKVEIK")
1.24

Which Affinity ELISA pH 6.0 value is on record for HC-A097S (antibody, V domains shown) VH: EVQLQQSGPELVKPGASVKISCKTSGYTFTEYTMHWMKQSHRKSLEWIGGINTNNGGTGYNQKFKGKATLTVDKSSSTAYMELRSLTSEDSAVYFCSRGSLYSYGNSYFDYWGQGTLVTVSS VL: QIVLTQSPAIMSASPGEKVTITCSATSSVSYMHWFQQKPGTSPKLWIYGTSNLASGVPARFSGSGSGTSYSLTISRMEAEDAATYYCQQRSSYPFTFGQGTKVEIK ?
1.67
